These entries and their values trace back to patent US11420943B2.

# ACTIVITY (CARNOSINE UNIT) 3 h per record follows
# measurement_notes: Carbonyl-quenching activity towards HNE in vitro (residual HNE by reverse-phase chromatography)
# Format: biochemical
# run_parameters: 3 h incubation; HNE 50 μM, compound 1 mM, phosphate buffer 10 mM, pH 7.4, 37° C.
Where a SMILES comes first, the peptide text is derived from it. [ ]: non-standard residue; d: D form. Aib = CC(C)(N)C(=O)O
Kindly answer with a numeric value in CARNOSINE UNIT, unit omitted.

# compound, ACTIVITY (CARNOSINE UNIT) 3 h
records = [
    ("NCC1(C(=O)N[C@H](CO)Cc2c[nH]cn2)CCC1", 2.08),
    ("CC(C)(CN)C(=O)N[C@@H](Cc1c[nH]cn1)C(=O)O [FLM-12-ACI]", 1.20),
    ("NCC1(C(=O)N[C@H](CO)Cc2c[nH]cn2)CCCCC1", 1.96),
]

Reported ACTIVITY (CARNOSINE UNIT) 3 h for "CC(C)(N)C(=O)N[C@H](CO)Cc1c[nH]cn1" was 0.45

ACTIVITY (CARNOSINE UNIT) 3 h reported for this compound "NCC(F)(F)C(=O)N[C@H](CO)Cc1c[nH]cn1" : 0.82

// field: ACTIVITY (CARNOSINE UNIT) 3 h; key: "NCC1(C(=O)N[C@@H](Cc2c[nH]cn2)C(=O)O)CC1" ; value = 0.89

ACTIVITY (CARNOSINE UNIT) 3 h reading for "CC(C)(N)CC(=O)N[C@@H](Cc1c[nH]cn1)C(=O)O" : 0.14

Value of measured ACTIVITY (CARNOSINE UNIT) 3 h for the entry CC(C)(N)C(=O)N[C@@H](Cc1c[nH]cn1)C(=O)O [FLM-05-ACI] (H-[Aib]-His-OH) : 0.37
